Would you mind telling me the reported GI50 of each entry?
# System: HT-29
# assay_details: Growth inhibitory activity against human HT-29 cell line
# Assay type: functional
Answers are plain numbers, in µM.

molecule: CN(Cc1cnc2nc(N)nc(N)c2n1)c1ccc(C(=O)N[C@@H](CCC(=O)O)C(=O)O)cc1 [METHOTREXATE]
measured_metric: GI50
measure_unit: µM
observed_result: 0.07

Batch lookup, GI50 per entry.
1. CCc1nc(N)nc(N)c1-c1ccc(NCc2ccccc2OC)c([N+](=O)[O-])c1
2. CCc1nc(N)nc(N)c1-c1ccc(Cl)c([N+](=O)[O-])c1

1.5
3.8

// for each molecule in input: emit GI50
1. CN(Cc1ccccc1)c1ccc(-c2cnc(N)nc2)cc1[N+](=O)[O-]
2. CCc1nc(N)nc(N)c1-c1ccc2[nH]c(-c3ccc(F)cc3)[n+]([O-])c2c1
3. Nc1ncc(-c2ccc(NCc3ccc(F)cc3)c([N+](=O)[O-])c2)cn1
4. CCc1nc(N)nc(N)c1-c1ccc(N(C)Cc2ccccc2)c([N+](=O)[O-])c1
5. COc1cc(NCc2ccc3nc(N)nc(N)c3c2C)cc(OC)c1OC [TRIMETREXATE]
6. Nc1ncc(-c2ccc(NCc3ccc(Cl)cc3)c([N+](=O)[O-])c2)cn1

[14, 46, 41, 0.48, 0.01, 17]

All values here come from ChEMBL document CHEMBL1138668.
